- Test system: Escherichia coli TOP10;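 note: peptides expressed intracellularly from a pBAD plasmid library in pooled LB shake-flask culture, induced with 0.3% L-arabinose, DNA abundance read by NGS, three biological replicates, DESeq2 with apeglm shrinkage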
- testSummary: shrunken log2 fold change of peptide-encoding DNA abundance (4.5 h post-induction vs induction); higher = less antimicrobial activity (less host growth inhibition)
- experimentalParameters: time post-induction: 4.5 h; library: site-saturation at positions 5, 18, 19, 20
Classify as follows. Reported shrunken log2 fold change greater than or equal to 0.3: y. Reported shrunken log2 fold change below: n.

INSERT INTO results (chain, categorylabel) VALUES
  ('RRIRIRPPRLPRPRPRPLRWPRP', 'y'),
  ('RRIRIRPPRLPRPRPRPWTQPRP', 'n'),
  ('RRIRRRPPRLPRPRPRPYFPPRP', 'y'),
  ('RRIRDRPPRLPRPRPRPNIIPRP', 'n'),
  ('RRIRLRPPRLPRPRPRPGAVPRP', 'y');

# check: shrunken log2 fold change of RRIRLRPPRLPRPRPRPDQIPRP is greater than or equal to 0.3
n

Another sequence: RRIRVRPPRLPRPRPRPAYIPRP
n
